system-tested: human TLR8 (Homo sapiens, UniProt Q9NR97)
Sequence (Q9NR97 27-1041): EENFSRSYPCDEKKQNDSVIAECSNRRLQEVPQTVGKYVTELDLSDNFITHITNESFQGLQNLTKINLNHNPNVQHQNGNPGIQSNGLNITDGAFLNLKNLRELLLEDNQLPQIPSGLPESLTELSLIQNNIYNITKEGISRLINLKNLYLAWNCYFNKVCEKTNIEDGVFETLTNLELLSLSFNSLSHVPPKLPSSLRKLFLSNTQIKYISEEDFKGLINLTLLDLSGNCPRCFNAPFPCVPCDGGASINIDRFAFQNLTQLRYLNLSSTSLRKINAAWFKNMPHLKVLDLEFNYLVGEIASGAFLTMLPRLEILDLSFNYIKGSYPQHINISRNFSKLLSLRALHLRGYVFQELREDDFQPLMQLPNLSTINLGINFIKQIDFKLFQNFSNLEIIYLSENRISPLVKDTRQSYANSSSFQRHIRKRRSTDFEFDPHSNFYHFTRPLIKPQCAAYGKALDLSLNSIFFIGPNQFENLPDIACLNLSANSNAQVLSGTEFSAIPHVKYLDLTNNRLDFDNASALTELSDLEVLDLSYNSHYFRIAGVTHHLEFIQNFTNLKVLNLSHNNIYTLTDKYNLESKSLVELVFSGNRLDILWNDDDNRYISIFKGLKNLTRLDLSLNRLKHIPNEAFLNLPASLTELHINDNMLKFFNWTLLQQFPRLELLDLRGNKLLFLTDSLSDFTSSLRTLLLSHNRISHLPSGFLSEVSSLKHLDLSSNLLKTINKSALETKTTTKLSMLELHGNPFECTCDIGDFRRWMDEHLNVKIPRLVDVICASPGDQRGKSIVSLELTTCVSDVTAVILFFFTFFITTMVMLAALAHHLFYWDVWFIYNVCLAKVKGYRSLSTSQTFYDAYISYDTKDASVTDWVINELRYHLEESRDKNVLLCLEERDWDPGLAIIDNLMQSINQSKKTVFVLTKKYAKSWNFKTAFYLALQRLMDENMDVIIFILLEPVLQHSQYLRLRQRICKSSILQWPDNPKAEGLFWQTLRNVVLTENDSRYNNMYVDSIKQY
measurement-description: TLR8 inhibition reporter assay (HEK-Blue cells, SEAP reporter, R848 stimulation)
condition-notes: HEK-Blue cells overexpressing human TLR8, SEAP reporter, R848 15.9 μM
Source text: TLR7/8/9 Inhibition Reporter Assays HEK-Blue™-cells (Invivogen) overexpressing human TLR7, TLR8 or TLR9 receptors were used for screening inhibitors of these receptors using an inducible SEAP (secreted embryonic alkaline phosphatase) reporter gene under the control of the IFN-β minimal promoter fused to five NF-κB and AP-1-binding sites. […]
experimental-readout: pIC50
Give bare numbers, as −log10 of the molar value.

Examples with their reported pIC50 follow.
Cc1c(-c2[nH]c3ccc(C4CNC(C)(C)CO4)cc3c2C(C)C)cn2ncnc2c1C (stereo not shown) [Example 370] | 9.46
CCc1c(-c2ccc(OC)c(OC)c2)[nH]c2ccc(CN3CC4CNCC4C3)cc12 (stereo not shown) | 6.45
COc1cc(-c2[nH]c3ccc(C4CCC(N5CCNC(=O)C5)CC4)cc3c2C(C)C)cn2ncnc12 (stereo not shown) [Example 71] | 8.57
COCCN1CCN(C2CCC(c3ccc4[nH]c(-c5cc(OC)c6ncnn6c5)c(C(C)C)c4c3)CC2)CC1 (single isomer, unassigned) [Example 39] | 8.24
Cc1c(-c2[nH]c3ccc(CC4CCCN4C4COC4)cc3c2C(C)C)cn2cnnc2c1C (stereo not shown) | 7.72
COc1cc(-c2[nH]c3ccc(C4CNCCO4)cc3c2C(C)C)cn2ncnc12 (stereo not shown) [Example 284] | 9.07
COc1cc(-c2[nH]c3ccc(C4CN(C5COC5)C4)cc3c2C(C)C)cn2ncnc12 | 8.57
COc1cc(-c2[nH]c3ccc(C4CC(N(C)C(=O)CN(C)C)C4)cc3c2C(C)C)cn2ncnc12 (stereo not shown) [Example 585] | 8.54

Go through the items and report each one's pIC50.
1. Cc1cc(-c2[nH]c3ccc([C@H]4C[C@H]4C(=O)N4CC5CC4CN5)cc3c2C(C)C)ccn1 (stereo partly shown)
2. CC(C)c1c(-c2ccnc3[nH]ncc23)[nH]c2ccc(/C=C/C3CCNCC3)cc12

Result string:
1. 8.26
2. 8.68
